Taken from patent US20200362047A1.

- measured.target: T1, human CD137-human Fc chimeric protein (Acro Biosystems cat no. 41B-H5258) (human, UniProt Q07011 24-186)
- T1 construct: Bought protein; The Octet Protein G and Biacore experiments name no catalogue number; also called human CD137Fc recombinant protein; human CD137-Fc recombinant protein; not shown: human IgG1 Fc tag
- protocol: BLI (Octet RED384), CD137-Fc on Protein G sensors, 1:1 model
readout.type: kon (M⁻¹ s⁻¹)

Worked cases, answers included:
**Q:** Given Humabody VH 1.78 (VHH, human single VH domain) VH: QVQLVESGGGLVQPGGSLRLSCAATGFTLSNYWMNWVRQAPGKGLEWVANINQDGSERYYVDSVKGRFTISRDNAKNSLYLQMSSLRAEDTAVYFCARGGEGYGVDHYGLDVSGQGTTVTVSSHHHHHH , state its recorded kon.
**A:** 304000

**Q:** Given Humabody VH 2.1 (VHH, human single VH domain) VH: EVQLVESGGGLVKPGGSLRVSCAASGFTFSDYYMSWFRQAPGKGLEWVSYISGSGDIIDYADSVKGRFTISRDNAKNSLYLQMNNLRAEDTAVYHCAREDSRLTGTTDFDNWGQGTLVTVSSHHHHHH , state its recorded kon.
**A:** 1.35e+06

(A) Humabody VH 1.71 (VHH, human single VH domain) VHH: EVQLVESGGGLVQPGGSLRLSCAASGFTFGNYWMIWVRQAPGKELEWLANINQNGSERYYVDSVQGRFTISRDNAKNSLYLQMNSLRAEDTAVYYCARGGADYSNSHYGMDVSGQGTTVTVSS
(B) Humabody VH 1.75 (VHH, human single VH domain) VHH: QVQLVESGGGLVQPGGSLRLSCAASGFTFSDYYMSWIRQAPGKGLEWVANINQDGSERYYVDSVKGRFTISRDNAKNSLYLQMSSLRAEDTAVYFCARGGEGYGVDHYGLDVSGQGTTVTVSS
**Q:** Please tell me which of the two, A or B , has the higher reported kon value. Let me know the label of the one you choose.
**A:** B
(B: 474000 M⁻¹ s⁻¹, A: 313000 M⁻¹ s⁻¹)

(a) Humabody VH 1.16 (VHH, human single VH domain) VHH: EVQLVESGGGLVQPGGSLRLSCVASGFTFSNYWMMWFRQAPGKGLEWVANINQDGSEKYFVDSVEGRFTISRDNAKNSLYLQMNSLRAEDTAVYYCARGGDGYSSSHYGTDVWGQGTTVTVSS
(b) Humabody VH 1.52 (VHH, human single VH domain) VH: EVQLVESGGGLVQIGGSLRLSCAASGFTFSKYWMIWVRQAPEKGLEWVANINQDGSEKYYVDSVEGRFTISRDNANNSLFLQMNSLRAEDTAVYYCARGGDDYSISHFGMDVSGQGTRVTVSSHHHHHH
**Q:** For the pair a and b , which member has the lower kon number? Let me know the label of the one you choose.
**A:** b
(b: 300000 M⁻¹ s⁻¹, a: 610000 M⁻¹ s⁻¹)

(P) Humabody VH 2.26 (VHH, human single VH domain) VHH: EVQLVESGGGLVKPGGSLRLSCTASGFTFTDYYMSWFRQAPGKGLEWVSHISSSGTTIDYADSVKGRFTISRDNAKNSLYLQMNSLRADDTAVYYCAREDIRMPGTTDFDNWGQGTLVTVSS
(Q) Humabody VH 2.8 (VHH, human single VH domain) VH: EVQLVESGGGLVKPGGSLRLSCAASGFAFSDYYMSWFRQAPGKGLEWVSHISGSGTTIDYADSVKGRFTISRDNAKNSLYLQMNSLRAEDTAVYHCAREDSRMPGTTDFDNWGQGTLVTVSSHHHHHH
(R) Humabody VH 1.39 (VHH, human single VH domain) VHH: EVQLVESGGGLVQPGGSLRLSCAASGFTFSNYWMNWVRQAPGKELEWVANINQDESEKYYVDSVKGRFTVSRDNAKNSLFLQMNSLRADDTAVYYCARGGFGYGDSHFGMDVWGQGTTVTVSS
**Q:** Reorder: kon, max to min. Your reply should list the labels following the order given in the request.
**A:** P, Q, R
(P: 1.8e+06 M⁻¹ s⁻¹, Q: 1.17e+06 M⁻¹ s⁻¹, R: 559000 M⁻¹ s⁻¹)

(1) Humabody VH 2.14 (VHH, human single VH domain) VH: EVQLVESGGGLVKPGGSLRLSCAASGFTFSDYYMTWFRQAPGKGLEWISYISGSGDTIDYAESVKGRFTISRDNAKNSLYLQMNSLRAEDTAVYYCAREDIRMPGTTDFDHWGQGTLVTVSSHHHHHH
(2) Humabody VH 1.11 (VHH, human single VH domain) VH: EVQLVESGGGLVQPGGSLRLSCEASGFTFSDYWMNWARQAPGKGLEWVANIKEDGSEKYYVDSVEGRFTISRDNAKNSTYLQMNSLRAEDTAVYYCARGGAGYSMSHYGMDVWGQGTTVTVSSHHHHHH
**Q:** For the pair 1 and 2 , which member has the lower kon number? Let me know the label of the one you choose.
**A:** 2
